Origin of measurements: paper PMC12040169

protocol-details: in vitro
experimental-parameters: human, hela cells, % viability
reported-endpoint: viability at 28.5 h, 10 µM (%)
Write the value in % as a bare number.

Task: What viability at 28.5 h, 10 µM value was documented for this molecule, CC1(C)OC(N2CCN(Cc3ccccc3)CC2)=Nc2ccccc21 [CBK023933C] ?
Result: 90.9

Task: What viability at 28.5 h, 10 µM value was documented for this molecule, CCc1cc(Br)ccc1S(=O)(=O)NC(CC)COC (stereo not shown) ?
Result: 88.1

Task: What viability at 28.5 h, 10 µM value was documented for this molecule, O=c1c(N2CCC(Sc3ccccc3)CC2)nccn1Cc1ccc([N+](=O)[O-])cc1 ?
Result: 108

Task: What viability at 28.5 h, 10 µM value was documented for this molecule, Cc1ccc(-n2c(SCC(=O)NCc3ccccc3)nnc2-c2ccc(Cl)cc2)cc1C ?
Result: 97.9

Task: What viability at 28.5 h, 10 µM value was documented for this molecule, CC(NC(=O)c1ccccc1)c1nnc(SCC(=O)N2CCOCC2)n1C (stereo not shown) ?
Result: 86

Task: What viability at 28.5 h, 10 µM value was documented for this molecule, COc1ccc(OC)c(CCO)c1 ?
Result: 94.4

Task: What viability at 28.5 h, 10 µM value was documented for this molecule, Cc1nn(-c2ccc(N3CCNCC3)nn2)c(=O)c2ccccc12 ?
Result: 88.1

Task: What viability at 28.5 h, 10 µM value was documented for this molecule, O=C(Nc1ccc(N2CCNCC2)nc1)c1cccnc1 [CBK029439T] ?
Result: 95.1

Task: What viability at 28.5 h, 10 µM value was documented for this molecule, CN(C)CC1CN(C(=O)Nc2ncc(Cc3ccccc3Cl)s2)CCO1 (stereo not shown) ?
Result: 93.6

Task: What viability at 28.5 h, 10 µM value was documented for this molecule, CCNc1nc(-c2cc(Cl)cc(Cl)c2)cn2ccnc12 ?
Result: 89.6
